Cited source: ChEMBL document CHEMBL4765301

Subject of test: Vascular endothelial growth factor receptor 2 (Homo sapiens) (UniProt P35968)
Sequence (P35968 whole entry): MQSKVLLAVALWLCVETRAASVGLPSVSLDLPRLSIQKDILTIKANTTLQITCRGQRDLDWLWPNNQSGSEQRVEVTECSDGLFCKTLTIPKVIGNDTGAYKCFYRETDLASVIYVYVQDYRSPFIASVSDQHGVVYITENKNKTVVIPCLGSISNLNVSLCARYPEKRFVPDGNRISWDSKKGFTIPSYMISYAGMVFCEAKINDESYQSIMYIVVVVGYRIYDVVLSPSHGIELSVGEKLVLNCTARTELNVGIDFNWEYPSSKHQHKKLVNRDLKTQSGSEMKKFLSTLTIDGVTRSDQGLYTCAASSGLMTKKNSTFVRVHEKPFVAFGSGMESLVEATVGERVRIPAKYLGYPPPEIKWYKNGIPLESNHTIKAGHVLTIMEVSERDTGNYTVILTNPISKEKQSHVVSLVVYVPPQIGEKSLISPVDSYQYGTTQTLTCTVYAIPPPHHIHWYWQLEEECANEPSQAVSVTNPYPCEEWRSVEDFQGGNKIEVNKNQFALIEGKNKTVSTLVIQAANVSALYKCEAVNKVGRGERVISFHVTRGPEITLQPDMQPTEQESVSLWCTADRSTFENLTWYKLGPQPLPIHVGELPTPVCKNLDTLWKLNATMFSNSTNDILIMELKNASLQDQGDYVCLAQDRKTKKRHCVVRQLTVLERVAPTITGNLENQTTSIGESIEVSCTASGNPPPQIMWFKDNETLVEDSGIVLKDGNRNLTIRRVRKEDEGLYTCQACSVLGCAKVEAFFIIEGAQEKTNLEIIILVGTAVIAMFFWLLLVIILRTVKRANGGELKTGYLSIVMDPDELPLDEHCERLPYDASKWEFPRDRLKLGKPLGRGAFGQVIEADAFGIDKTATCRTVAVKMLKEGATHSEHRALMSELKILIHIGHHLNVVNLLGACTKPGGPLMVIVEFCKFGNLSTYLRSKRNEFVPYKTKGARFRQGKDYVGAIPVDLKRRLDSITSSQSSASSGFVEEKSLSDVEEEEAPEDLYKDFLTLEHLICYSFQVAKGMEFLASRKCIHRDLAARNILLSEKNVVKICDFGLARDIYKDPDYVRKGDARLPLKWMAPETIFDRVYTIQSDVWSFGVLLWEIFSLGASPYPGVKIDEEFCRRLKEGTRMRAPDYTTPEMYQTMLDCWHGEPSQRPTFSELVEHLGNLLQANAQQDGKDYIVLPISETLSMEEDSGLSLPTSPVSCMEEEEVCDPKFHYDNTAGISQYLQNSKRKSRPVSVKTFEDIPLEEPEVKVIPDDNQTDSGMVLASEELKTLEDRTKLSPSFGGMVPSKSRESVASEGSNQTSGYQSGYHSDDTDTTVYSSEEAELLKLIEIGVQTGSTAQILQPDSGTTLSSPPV
Protocol details: Inhibition of recombinant human KDR (790 to end residues) assessed as residual activity at 1 uM using myelin basic protein as substrate incubated for 40 mins by [gamma-33P]-ATP scintillation counting based radiometry assay relative to control
API: label(entry) gives MET if the entry's Activity is strictly smaller than 90%; on equality or larger values it gives NOT MET.

Answered examples (5):
Compound: CCC(=O)Nc1cc(Nc2ncnc3sc4c(c23)CCN(C(=O)c2ccc(C(F)(F)F)cc2)C4)ccc1N(C)C
Subject of test: Vascular endothelial growth factor receptor 2 (Homo sapiens) (UniProt P35968)
Answer label: NOT MET
//
Compound: CN(C)c1ccc(Nc2ncnc3sc4c(c23)CCNC4)cc1NC(=O)c1cccs1
Subject of test: Vascular endothelial growth factor receptor 2 (Homo sapiens) (UniProt P35968)
Answer label: NOT MET
//
Compound: CCC(=O)Nc1cc(Nc2ncnc3sc4c(c23)CCN(CC)C4)ccc1N(C)C
Subject of test: Vascular endothelial growth factor receptor 2 (Homo sapiens) (UniProt P35968)
Answer label: MET
//
Compound: CCC(=O)Nc1cc(Nc2ncnc3sc4c(c23)CCN(C)C4)ccc1N(C)C
Subject of test: Vascular endothelial growth factor receptor 2 (Homo sapiens) (UniProt P35968)
Answer label: MET
//
Compound: Cc1ccc(C(=O)Nc2cc(Nc3ncnc4sc5c(c34)CCN(C)C5)ccc2N(C)C)cc1
Subject of test: Vascular endothelial growth factor receptor 2 (Homo sapiens) (UniProt P35968)
Answer label: MET

query: Quick check: does `CN(C)c1ccc(Nc2ncnc3sc4c(c23)CCN(C(=O)c2ccccn2)C4)cc1NC(=O)c1ccco1` have Activity under 90%?
result: MET

====

Subject of test: Serine/threonine-protein kinase TNNI3K (Homo sapiens)
Protocol details: Inhibition of TNNI3K (unknown origin) assessed as residual activity at 1 uM using biotinylated CTnI as substrate by HTRF analysis relative to control
Measure name: Activity (%)
// note: answer is a bare numeric in %

The measured Activity associated with `CN(C)c1ccc(Nc2ncnc3sc4c(c23)CCNC4)cc1NC(=O)c1ccccn1` reads 42

====

Subject of test: Epidermal growth factor receptor (Homo sapiens) (UniProt P00533)
Sequence (P00533 whole entry): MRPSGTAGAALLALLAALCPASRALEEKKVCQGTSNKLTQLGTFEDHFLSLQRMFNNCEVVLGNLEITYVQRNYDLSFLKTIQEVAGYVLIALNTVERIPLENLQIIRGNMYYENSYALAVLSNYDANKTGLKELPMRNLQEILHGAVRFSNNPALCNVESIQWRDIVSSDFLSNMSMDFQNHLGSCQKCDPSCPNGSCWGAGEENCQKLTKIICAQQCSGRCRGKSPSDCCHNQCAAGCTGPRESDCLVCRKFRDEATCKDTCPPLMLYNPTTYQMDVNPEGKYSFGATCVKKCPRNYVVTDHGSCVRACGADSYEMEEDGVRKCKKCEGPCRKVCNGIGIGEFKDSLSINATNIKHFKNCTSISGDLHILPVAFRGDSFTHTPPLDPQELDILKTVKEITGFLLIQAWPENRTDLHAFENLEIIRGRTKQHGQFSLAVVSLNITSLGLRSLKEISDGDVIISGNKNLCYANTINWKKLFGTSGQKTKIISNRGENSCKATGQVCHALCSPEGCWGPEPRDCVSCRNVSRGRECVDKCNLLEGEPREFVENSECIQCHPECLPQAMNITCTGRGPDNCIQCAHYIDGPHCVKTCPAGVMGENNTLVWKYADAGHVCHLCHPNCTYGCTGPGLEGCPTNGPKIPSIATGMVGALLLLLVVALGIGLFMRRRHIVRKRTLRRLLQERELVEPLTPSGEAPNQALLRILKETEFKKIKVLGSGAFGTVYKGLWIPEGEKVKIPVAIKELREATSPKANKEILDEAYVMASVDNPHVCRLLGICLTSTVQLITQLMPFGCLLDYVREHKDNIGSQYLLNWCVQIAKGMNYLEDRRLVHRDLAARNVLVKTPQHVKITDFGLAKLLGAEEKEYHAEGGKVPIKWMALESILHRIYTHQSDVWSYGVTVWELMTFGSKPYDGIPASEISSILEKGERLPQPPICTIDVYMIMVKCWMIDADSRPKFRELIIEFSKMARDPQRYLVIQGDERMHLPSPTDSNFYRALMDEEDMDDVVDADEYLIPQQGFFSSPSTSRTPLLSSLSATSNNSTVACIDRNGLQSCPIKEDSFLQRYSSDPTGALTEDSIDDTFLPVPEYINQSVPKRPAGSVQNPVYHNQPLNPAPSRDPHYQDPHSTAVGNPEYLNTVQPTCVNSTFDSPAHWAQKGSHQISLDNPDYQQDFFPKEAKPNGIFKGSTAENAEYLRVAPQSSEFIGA
Protocol details: Inhibition of recombinant human EGFR (696 to end residues) assessed as residual activity at 1 uM using poly(Glu, Tyr) 4:1 as substrate incubated for 40 mins by [gamma-33P]-ATP scintillation counting based radiometry assay relative to control
Measure name: Activity (%)
Give just the numeric value; % need not be written.

Consider the following illustrative entries.
Compound: CN(C)c1ccc(Nc2ncnc3sc4c(c23)CCN(C(=O)c2ccncc2)C4)cc1NC(=O)c1cccs1
Display unit: %
Activity: 85
//
Compound: CN(C)c1ccc(Nc2ncnc3sc4c(c23)CCN(C(=O)c2ncccn2)C4)cc1NC(=O)c1ccco1
Display unit: %
Activity: 82
//
Compound: CN(C)c1ccc(Nc2ncnc3sc4c(c23)CCN(C(=O)c2cnccn2)C4)cc1NC(=O)c1ccco1
Display unit: %
Activity: 89

Next compound, Activity to be filled in.
For record `CN1CCc2c(sc3ncnc(Nc4ccc(N(C)C)c(NC(=O)c5ccco5)c4)c23)C1` the listed Activity is 93

====

Item-by-item account of Activity
Subject of test: Serine/threonine-protein kinase TNNI3K (Homo sapiens)
Protocol details: Inhibition of TNNI3K (unknown origin) assessed as residual activity at 1 uM using biotinylated CTnI as substrate by HTRF analysis relative to control
Just the number please, in %, no unit attached.

Activity for `Cc1ccc(C(=O)Nc2cc(Nc3ncnc4sc5c(c34)CCNC5)ccc2N(C)C)cc1` is 78

In plain terms, `CCC(=O)Nc1cc(Nc2ncnc3sc4c(c23)CCN(CC)C4)ccc1N(C)C` has a documented Activity of 53

Consider `CN1CCc2c(sc3ncnc(Nc4ccc(N(C)C)c(NC(=O)c5cccnc5)c4)c23)C1` . Its measured Activity is 47

// `CCC(=O)Nc1cc(Nc2ncnc3sc4c(c23)CCN(C)C4)ccc1N(C)C` : Activity value = 49

The value of Activity measured for the molecule `CN1CCN(CCCN2CCc3c(sc4ncnc(Nc5ccc(N(C)C)c(NC(=O)c6cccs6)c5)c34)C2)CC1` turned out to be 38

Per the records, this molecule ( `Cc1ccc(C(=O)Nc2cc(Nc3ncnc4sc5c(c34)CCN(C)C5)ccc2N(C)C)cc1` ) has Activity equal to 71

Lookup result for `CN(C)c1ccc(Nc2ncnc3sc4c(c23)CCN(C(=O)c2cccnc2)C4)cc1NC(=O)c1cccs1` ; measured Activity: 45

Value of measured Activity for the entry `CCC(=O)Nc1cc(Nc2ncnc3sc4c(c23)CCN(Cc2ccccc2)C4)ccc1N(C)C` : 48

====

Activity for assorted molecules
Subject of test: Serine/threonine-protein kinase TNNI3K (Homo sapiens)
Sequence (whole entry): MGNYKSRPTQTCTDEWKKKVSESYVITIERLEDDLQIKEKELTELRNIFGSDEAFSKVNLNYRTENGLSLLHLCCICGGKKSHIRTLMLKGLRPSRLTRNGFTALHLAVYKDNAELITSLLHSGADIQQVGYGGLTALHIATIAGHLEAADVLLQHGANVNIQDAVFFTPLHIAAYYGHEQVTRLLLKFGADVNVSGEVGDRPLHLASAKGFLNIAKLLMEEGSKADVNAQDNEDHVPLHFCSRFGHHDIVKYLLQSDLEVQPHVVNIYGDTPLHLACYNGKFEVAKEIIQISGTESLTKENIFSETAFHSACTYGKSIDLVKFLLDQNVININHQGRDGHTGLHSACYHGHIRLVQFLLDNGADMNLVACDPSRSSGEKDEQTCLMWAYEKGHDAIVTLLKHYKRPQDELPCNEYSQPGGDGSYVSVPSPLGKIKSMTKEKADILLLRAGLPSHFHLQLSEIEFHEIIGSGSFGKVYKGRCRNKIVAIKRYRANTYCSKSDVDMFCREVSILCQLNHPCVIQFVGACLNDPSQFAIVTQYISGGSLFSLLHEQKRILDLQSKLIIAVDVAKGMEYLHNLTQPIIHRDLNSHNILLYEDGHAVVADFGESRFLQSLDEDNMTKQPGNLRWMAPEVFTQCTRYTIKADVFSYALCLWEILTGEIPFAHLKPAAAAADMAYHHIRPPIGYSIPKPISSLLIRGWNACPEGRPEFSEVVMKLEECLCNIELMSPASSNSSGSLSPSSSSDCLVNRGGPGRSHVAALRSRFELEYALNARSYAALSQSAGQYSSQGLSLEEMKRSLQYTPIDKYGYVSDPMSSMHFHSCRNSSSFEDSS
Protocol details: Inhibition of TNNI3K (unknown origin) assessed as residual activity at 1 uM using biotinylated CTnI as substrate by HTRF analysis relative to control

The following molecules have reported results that may help.
Compound: CN(C)c1ccc(Nc2ncnc3sc4c(c23)CCNC4)cc1NC(=O)c1cccnc1
Activity: 45%
//
Compound: CN(C)c1ccc(Nc2ncnc3sc4c(c23)CCN(C(=O)c2ccccn2)C4)cc1NC(=O)c1ccco1
Activity: 39%
//
Compound: CCC(=O)Nc1cc(Nc2ncnc3sc4c(c23)CCN(C(=O)c2ccc(C(F)(F)F)cc2)C4)ccc1N(C)C
Activity: 41%
//
Compound: CN(C)CCCN1CCc2c(sc3ncnc(Nc4ccc(N(C)C)c(NC(=O)c5ccco5)c4)c23)C1
Activity: 28%
//
Compound: CN1CCc2c(sc3ncnc(Nc4ccc(N(C)C)c(NC(=O)c5cccs5)c4)c23)C1
Activity: 40%

Input `CN(C)c1ccc(Nc2ncnc3sc4c(c23)CCNC4)cc1NC(=O)c1cccc2ccccc12` . Output Activity: 71%

Summary for this molecule, `CN(C)c1ccc(Nc2ncnc3sc4c(c23)CCN(C(=O)c2ccccn2)C4)cc1NC(=O)c1cccs1` : Activity is 40%

Reported Activity for `CN(C)c1ccc(Nc2ncnc3sc4c(c23)CCN(C(=O)c2cccnc2)C4)cc1NC(=O)c1ccco1` was 41%

Record `CCC(=O)Nc1cc(Nc2ncnc3sc4c(c23)CCN(c2ncccn2)C4)ccc1N(C)C` , field Activity: 59%

The value of Activity measured for the molecule `CN1CCc2c(sc3ncnc(Nc4ccc(N(C)C)c(NC(=O)c5cccc6ccccc56)c4)c23)C1` turned out to be 77%

The molecule `CN(C)c1ccc(Nc2ncnc3sc4c(c23)CCN(C(=O)c2ccncc2)C4)cc1NC(=O)c1cccs1` showed Activity equal to 36%

====

Subject of test: Epidermal growth factor receptor (Homo sapiens) (UniProt P00533)
Protocol details: Inhibition of recombinant human EGFR (696 to end residues) assessed as residual activity at 1 uM using poly(Glu, Tyr) 4:1 as substrate incubated for 40 mins by [gamma-33P]-ATP scintillation counting based radiometry assay relative to control
Please assign label 0 whenever Activity is at or above 90%, and label 1 whenever it is below.

Consider the following illustrative entries.
Compound: CN(C)c1ccc(Nc2ncnc3sc4c(c23)CCN(C(=O)c2cnccn2)C4)cc1NC(=O)c1cccs1
Answer label: label 1

Compound: CN(C)c1ccc(Nc2ncnc3sc4c(c23)CCN(C(=O)c2ccncc2)C4)cc1NC(=O)c1ccco1
Answer label: label 0

Compound: CN1CCc2c(sc3ncnc(Nc4ccc(N(C)C)c(NC(=O)c5cccc6ccccc56)c4)c23)C1
Answer label: label 0

Compound: CN1CCN(CCCN2CCc3c(sc4ncnc(Nc5ccc(N(C)C)c(NC(=O)c6cccs6)c5)c34)C2)CC1
Answer label: label 1

query: For `CN(C)c1ccc(Nc2ncnc3sc4c(c23)CCNC4)cc1NC(=O)c1cccc2ccccc12` , is the recorded Activity below the cut-off of 90%?
result: label 0

query: Determine if `CN(C)c1ccc(Nc2ncnc3sc4c(c23)CCN(C(=O)c2cccnc2)C4)cc1NC(=O)c1ccco1` shows Activity strictly lower than 90%.
result: label 0

query: Does the reported Activity of `CN1CCc2c(sc3ncnc(Nc4ccc(N(C)C)c(NC(=O)c5cccnc5)c4)c23)C1` stay below 90%?
result: label 0

query: Lab log: compare recorded Activity with 90%; is it strictly lower for `CN1CCc2c(sc3ncnc(Nc4ccc(N(C)C)c(NC(=O)c5ccccn5)c4)c23)C1` ?
result: label 0

query: Hello, is Activity of the following compound strictly smaller than 90%? `CCC(=O)Nc1cc(Nc2ncnc3sc4c(c23)CCNC4)ccc1N(C)C`
result: label 0

query: Field: below-cutoff. Rule: recorded Activity strictly less than 90%. Subject: `CCC(=O)Nc1cc(Nc2ncnc3sc4c(c23)CCN(CCCN2CCOCC2)C4)ccc1N(C)C`
result: label 0

query: For `CN(C)c1ccc(Nc2ncnc3sc4c(c23)CCNC4)cc1NC(=O)c1ccco1` , is the recorded Activity below the cut-off of 90%?
result: label 0

query: Lab note: Activity threshold 90%. Does this compound come in strictly under it? `CN(C)c1ccc(Nc2ncnc3sc4c(c23)CCNC4)cc1NC(=O)c1cccs1`
result: label 0

query: Here's an entry: `CN(C)c1ccc(Nc2ncnc3sc4c(c23)CCN(C(=O)c2ccccn2)C4)cc1NC(=O)c1cccs1` . Is its Activity below 90%?
result: label 0

query: Strictly below 90% in Activity? `Cc1ccc(C(=O)Nc2cc(Nc3ncnc4sc5c(c34)CCN(C)C5)ccc2N(C)C)cc1`
result: label 0

query: Check if Activity falls below 90% for `CN(C)CCCN1CCc2c(sc3ncnc(Nc4ccc(N(C)C)c(NC(=O)c5ccco5)c4)c23)C1` .
result: label 1
